tested on: NCI-H23 complex spheroids with HUVEC/MSC, viability; assay: Anticancer human tumor NCI-H23 cell line growth inhibition [RAS]; details: second compound 0.0949 µM; first compound 10 µM; active means viability on the fitted dose curve at most 10% of control; inactive means the rest;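 further: spheroids exposed to compound for 7 days; 100% = DMSO vehicle control viability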
The categories you may choose from are 1 (yes) for active, 0 (no) for inactive

Example results:
>>> class_assignment("CC(C)NCC(C(=O)N1CCN(c2ncnc3c2C(C)CC3O)CC1)c1ccc(Cl)cc1 (centres undefined) + CCn1c(-c2cc(N3CCN(C)CC3)cnc2C(C)OC)c2c3cc(ccc31)-c1csc(n1)CC(NC(=O)C1CC1C)C(=O)N1CCCC(N1)C(=O)OCC(C)(C)C2")
"0 (no)"
>>> class_assignment("CC(C)NCC(C(=O)N1CCN(c2ncnc3c2C(C)CC3O)CC1)c1ccc(Cl)cc1 (centres undefined) + CCn1c(-c2cccnc2C(C)OC)c2c3cc(ccc31)N1CCOC(CC(NC(=O)C(C(C)C)N(C)C(=O)C3(F)CCN(C(=O)C#CC(C)(C)N(C)C)CC3)C(=O)N3CCCC(N3)C(=O)OCC(C)(C)C2)C1")
"0 (no)"
>>> class_assignment("C[C@@H](NC(=O)c1ncnc(N)c1Cl)c1ncc(C(=O)Nc2cc(C(F)(F)F)c(Cl)cn2)s1 + CCn1c(-c2cc(N3CCN(C)CC3)cnc2C(C)OC)c2c3cc(ccc31)-c1csc(n1)CC(NC(=O)C1CC1C)C(=O)N1CCCC(N1)C(=O)OCC(C)(C)C2")
"0 (no)"

# outcome recorded in this test, key = Cc1nc(N2CCC3(CC2)COC(C)C3N)c(CO)nc1Sc1ccnc(N)c1Cl (centres undefined) + CCn1c(-c2cccnc2C(C)OC)c2c3cc(ccc31)N1CCOC(CC(NC(=O)C(C(C)C)N(C)C(=O)C3(F)CCN(C(=O)C#CC(C)(C)N(C)C)CC3)C(=O)N3CCCC(N3)C(=O)OCC(C)(C)C2)C1 1 (yes)
